study target: T1, GDF15-HIS (ACROBiosystems, CAT #: GD5-H5149) (human, UniProt Q99988 197-308)
T1 construct: Bought protein; also called GDF15 (ACROBiosystems, GD5-H5149); human GDF15; not shown: His tag
T1 sequence (looked up): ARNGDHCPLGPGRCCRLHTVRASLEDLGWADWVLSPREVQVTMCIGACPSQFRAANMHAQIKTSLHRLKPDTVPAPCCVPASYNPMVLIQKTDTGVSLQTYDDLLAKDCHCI
method summary: BLI (ForteBio Octet), antibody immobilised, GDF15 200-6.25 nM
Reported koff values for the following binders.
Respond numerically; units are s⁻¹ and should not be typed.

A5 (murine anti-50G3) (antibody, V domains shown, Purified murine hybridoma antibody) VH: QVTLKESGPGILKPSQTLSLTCSFSGFSLSTSGMGVGWIRQPSGKGLEWLAHIWWNDDKYYNPSLKSHLTISKDTSRNQVFLMITSVDTADTATYYCARGAYDFFDYWGQGTTLTVSS VL: DIVMTQAQNFMSTSVGDRVSVTCKASQNVDTNVAWYQQKPGQSPKALIYSASYRYSGVPDRFTGSGSGTDFTLTISNVQSDDLADYFCQQYNTYPYTFGGGTKLEIK    0.000328
A4 (murine anti-2A2) (antibody, V domains shown, Purified murine hybridoma antibody) VH: QVTLKESGPGILQPSQTLSLTCSFSGFSLTTSGMGVDWIRQSSGKGLEWLAHIYWDDDKRYNPSLKSRLTISKDTSSNQVFLKITSVDTADTATYYCARRAWDAMDYWGQGTSFTVSS VL: DIVMTQAQKFMSTSVGDRVSVTCKARQNVGTNVAWYQQKPGQSPKALIYSASYRYSGVPDRFTGSGSGTDFTLTISNVQSEDLAEYFCQQYNSYPYTFGGGTKLEIK    0.000214
A2 (murine anti-53A8) (antibody, V domains shown, Purified murine hybridoma antibody; also called murine antibody 53A8) VH: QVQLKESGPGILQPSQTLSLTCSFSGFSLSTSGMGVGWIRQPSGKGLEWLAHIRWDDVKRYNPALKSRLTISKDTSSSQIFLKIASVDTADTATYYCAQMAWDWFAYWGQGTLVTVSA VL: DIVMTQAQKFMSTSVGDRVSVTCKASQNVDTDVAWYQQKPGQSPKALIYSASYRYSGVPDRFTGSGSGTDFTLTITNVQSEDLAEYFCHQYNSYPTFGGGTKLEIK    0.000318
A1 (murine anti-53E5) (antibody, V domains shown, Purified murine hybridoma antibody) VH: QVQLKESGPGILQPSQTLSLTCSFSGFSLSTSGMGVGWIRQPSGKGLEWLAHILWDDVKRYNPALKSRLTISKDSSNSQIFLKIASVDTADTATYYCVQMAWDWFAYWGQGTLVTVSA VL: DIVMTQAQKFMSTSVEDRVSVTCKASQNVDTNVAWYQQKPGQSPKALIYSASYRSSGVPDRFTGSGSGTDFTLTISNVQSEDLAEYFCQQYHSYPTFGGGTKLEIK    0.000194
A3 (murine anti-34G9) (antibody, V domains shown, Purified murine hybridoma antibody) VH: QVQLKESGPGILQPSQTLSLTCSFSGFSLNTAGMTVGWIRQPSGKGLEWLAHIWWNDDKYYNPALKSRLTISKDTSNNQIFLEIASVVTADTATYYCTRIATMNYAMDYWGQGTSVTVSS VL: DIVMTQAPASLAVSLGQRATISCRASQSVSTSSFSYMHWYQQKPGQPPKLLIKYASNLESGVPARFSGSGSGTDFTLNIHPVEEEDTATYYCQHSWEIPYTFGGGTKLEIK    7.2e-05

Next binder, koff to be filled in.
I have this binder here, A6 (murine anti-53D10) (antibody, V domains shown, Purified murine hybridoma antibody) VH: QVTLKESGPGIVQPSQPFRLTCTFSGFSLSTSGIGITWIRQPSGKGLEWLATIWWDDDNRYNPSLKSRLTVSKDTSNNQAFLNIITVETADTAIYYCVQSAWDWFAYWGQGTLVTVSA VL: DIVMTQSQKFMSTSVGDRVSVTCKASQNVGTNVAWYQQKSGQSPKALIYSASYRNSGVPDRFTGSGSGTDFTLTISNVESEDLAEYFCQQYNSHPVTFGGGTKLEIK , and I need its recorded koff.
0.000217
